- Species: Rattus norvegicus
- protocol: Saluretic property (excretion of Na+ in rat); further: test concentration or dose not given here
- Type: ADME, organism-based
- cond: in vivo
Please provide measured Saluretic potency for the entries that follow.

Qu. Find the measured Saluretic potency of CC(C)(C)c1cc(I)c(O)c(CNC2=NCCO2)c1 and report it.
Ans. < 0.3 u equiv

Qu. // fetch Saluretic potency given entry CCN(CC)C(=O)COc1c(I)cc(C(C)(C)C)cc1CN.Cl
Ans. < 0.3 u equiv

Qu. Read off the recorded Saluretic potency for O=C(NCc1c(O)c(Cl)cc(Cl)c1Cl)C(Cl)(Cl)Cl
Ans. < 0.3 u equiv

Qu. Determine its reported Saluretic potency: CC(C)(C)c1cc(I)c(O)c(C[N+](C)(C)C)c1.[I-]
Ans. < 0.3 u equiv

Qu. Given the compound O=CNCc1c(O)c(Cl)cc(Cl)c1Cl , write its reported Saluretic potency.
Ans. < 0.3 u equiv

Qu. Using known records, supply Saluretic potency for Oc1c(Cl)cc(Cl)c(Cl)c1CN1CCOCC1
Ans. < 0.3 u equiv

Qu. State its Saluretic potency for this compound: CN1CCN(Cc2cc(C(C)(C)C)cc(Cl)c2O)CC1.Cl
Ans. < 0.3 u equiv

Qu. Quickly give me recorded Saluretic potency for CC(C)(C)c1cc(I)c(O)c(CNC(N)=O)c1
Ans. < 0.3 u equiv

Qu. In one line, give reported Saluretic potency of the entry CC(C)(C)c1cc(I)c(O)c(CNCCN)c1.Cl .
Ans. 1.5 u equiv

Qu. Return reported Saluretic potency. Input compound: CC(C)(C)c1cc(I)c2c(c1)CNS(=O)(=O)O2
Ans. < 0.3 u equiv

Qu. Please look at this compound and report its Saluretic potency: Cl.NCc1c(O)c(Cl)cc(Cl)c1Cl
Ans. 2.9 u equiv

Qu. Given CN(Cc1c(O)c(Cl)cc(Cl)c1Cl)CC1CCCO1 (stereo unspecified) , respond with its Saluretic potency.
Ans. < 0.3 u equiv

Qu. Check the records and state Saluretic potency for CC(C)(C)c1cc(Cl)c(O)c(CNS(N)(=O)=O)c1
Ans. < 0.3 u equiv

Qu. Query Saluretic potency for CC(C)(C)c1cc(Cl)c(O)c(/C=N/N=C(/N)S)c1
Ans. < 0.3 u equiv

Qu. Please report Saluretic potency for the following compound: CN(C)S(=O)(=O)Oc1c(I)cc(C(C)(C)C)cc1CN.Cl
Ans. 2.4 u equiv

Qu. Return Saluretic potency (reported value) for this compound: COc1c(I)cc(C(C)(C)C)cc1CN.Cl
Ans. < 0.3 u equiv

Qu. Please supply the value of reported Saluretic potency for the item O=C(CCl)NCc1c(O)c(Cl)cc(Cl)c1Cl
Ans. 1.5 u equiv

Qu. // Input: CC(C)(C)c1cc(I)c(O)c(Cn2cnnn2)c1 . Output its Saluretic potency only.
Ans. < 0.3 u equiv

Qu. Check the records and state Saluretic potency for CC(C)(C)c1cc(I)c(OS(=O)(=O)c2ccccc2)c(CN)c1.Cl
Ans. 2.4 u equiv

Qu. Please give the documented Saluretic potency of CC(C)(C)c1cc(I)c(OS(=O)(=O)O)c(CN)c1
Ans. 2.9 u equiv

Qu. Return Saluretic potency for the following compound: Oc1c(Cl)cc(Cl)c(Cl)c1CN1CCCCC1
Ans. < 0.3 u equiv

Qu. Please report Saluretic potency for the following compound: CC(C)(C)c1cc(I)c(O)c(CN=C(N)N)c1
Ans. < 0.3 u equiv

Qu. # return recorded Saluretic potency for entry CC(C)(C)c1cc(Cl)c(O)c(C[n+]2ccccc2)c1.[Cl-]
Ans. < 0.3 u equiv

Qu. Complete the entry with Saluretic potency for NCC(=O)NCc1c(O)c(Cl)cc(Cl)c1Cl
Ans. < 0.3 u equiv

Qu. Provide measured Saluretic potency value, entry: COc1c(Cl)cc(Cl)c(Cl)c1CN.Cl
Ans. < 0.3 u equiv

Qu. Specify measured Saluretic potency for CC(C)(C)c1cc(I)c(O)c(CNC2=NCCS2)c1 .
Ans. < 0.3 u equiv
